biological target: Cytochrome P450 2C9 (Homo sapiens)
Sequence (P11712 whole entry): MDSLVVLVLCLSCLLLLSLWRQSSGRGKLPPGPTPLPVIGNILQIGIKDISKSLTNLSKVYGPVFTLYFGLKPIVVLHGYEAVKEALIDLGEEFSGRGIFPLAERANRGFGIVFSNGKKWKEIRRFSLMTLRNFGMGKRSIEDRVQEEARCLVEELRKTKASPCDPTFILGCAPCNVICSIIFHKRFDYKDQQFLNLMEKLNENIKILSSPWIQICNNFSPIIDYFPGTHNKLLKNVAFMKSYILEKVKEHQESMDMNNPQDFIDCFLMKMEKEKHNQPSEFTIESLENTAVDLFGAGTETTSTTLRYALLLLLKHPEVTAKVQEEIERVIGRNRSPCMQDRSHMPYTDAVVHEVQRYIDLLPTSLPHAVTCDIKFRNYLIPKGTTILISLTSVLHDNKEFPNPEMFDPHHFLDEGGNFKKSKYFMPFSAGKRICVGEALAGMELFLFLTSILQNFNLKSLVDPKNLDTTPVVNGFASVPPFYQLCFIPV
recorded_endpoint: IC50

> print(dat)
                              record.smiles  recorded.endpoint  reported.result
1  Nc1nccn2c1c(-c1ccc3ccc(-c4ccccc4)nc3c1F)nc2[C@H]1CC[C@H](C(=O)Nc2nc3ccccc3[nH]2)CC1               IC50           9.8 µM

====

assay: Permeability of the compound at pH 7.4 by PAMPA; format: ADME; settings: read-out: permeability
Reported Papp values for a set of compounds
recorded_endpoint: Papp (×10⁻⁶ cm/s)

> print(dat)
                              record.smiles  recorded.endpoint  measure.unit  relation  reported.result
1  Nc1nccn2c1c(-c1ccc3ccc(-c4ccccc4)nc3c1F)nc2[C@H]1CC[C@H](CO)CC1               Papp    ×10⁻⁶ cm/s         >             1000
2  Nc1nccn2c1c(-c1ccc3ccc(-c4ccccc4)nc3c1F)nc2[C@H]1CC[C@H](C(N)=O)CC1               Papp    ×10⁻⁶ cm/s         =               63
3  Nc1nccn2c1c(-c1ccc3ccc(-c4ccccc4)nc3c1F)nc2[C@H]1CC[C@H](C(=O)Nc2nncs2)CC1               Papp    ×10⁻⁶ cm/s         =               86
4  Nc1nccn2c1c(-c1ccc3ccc(-c4ccccc4)nc3c1F)nc2[C@H]1CC[C@H](C(=O)O)CC1               Papp    ×10⁻⁶ cm/s         >             1000
5  Nc1nccn2c1c(-c1ccc3ccc(-c4ccccc4)nc3c1F)nc2[C@H]1CC[C@H](C(=O)Nc2nc3ccccc3[nH]2)CC1               Papp    ×10⁻⁶ cm/s         =              766

====

experiment: Oral bioavailability in mouse at 25 mg/kg; type: ADME, organism-based; conditions: in vivo
recorded_endpoint: bioavailability

> print(dat)
                              record.smiles  reported.result
1  Nc1nccn2c1c(-c1ccc3ccc(-c4ccccc4)nc3c1F)nc2[C@H]1CC[C@H](C(=O)Nc2nncs2)CC1               5%
2  Nc1nccn2c1c(-c1ccc3ccc(-c4ccccc4)nc3c1F)nc2[C@H]1CC[C@H](C(=O)O)CC1              51%
3  Nc1nccn2c1c(-c1ccc3ccc(-c4ccccc4)nc3c1F)nc2[C@H]1CC[C@H](C(=O)Nc2nc3ccccc3[nH]2)CC1              50%
4  Nc1nccn2c1c(-c1ccc3ccc(-c4ccccc4)nc3c1F)nc2[C@H]1CC[C@H](C(N)=O)CC1              24%

====

Target chain: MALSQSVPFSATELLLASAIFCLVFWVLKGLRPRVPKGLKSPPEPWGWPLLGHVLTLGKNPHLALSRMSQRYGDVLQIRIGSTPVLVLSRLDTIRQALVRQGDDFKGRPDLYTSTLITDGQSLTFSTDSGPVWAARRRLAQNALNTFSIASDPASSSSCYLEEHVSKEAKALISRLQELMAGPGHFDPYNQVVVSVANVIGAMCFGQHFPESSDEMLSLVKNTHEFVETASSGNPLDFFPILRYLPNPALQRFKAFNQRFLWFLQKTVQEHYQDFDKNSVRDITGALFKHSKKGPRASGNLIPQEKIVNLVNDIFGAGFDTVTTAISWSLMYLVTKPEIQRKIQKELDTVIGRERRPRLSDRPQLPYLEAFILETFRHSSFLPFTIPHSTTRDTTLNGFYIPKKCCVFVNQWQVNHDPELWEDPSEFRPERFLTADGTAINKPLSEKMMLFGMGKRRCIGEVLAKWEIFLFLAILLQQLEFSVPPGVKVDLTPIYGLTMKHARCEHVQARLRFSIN
recorded_endpoint: IC50

> print(dat)
                              record.smiles  recorded.endpoint  reported.result
1  Nc1nccn2c1c(-c1ccc3ccc(-c4ccccc4)nc3c1F)nc2[C@H]1CC[C@H](C(=O)Nc2nc3ccccc3[nH]2)CC1               IC50          > 20 µM
